# target-desc: KAT II (Rattus norvegicus, UniProt Q64602)
# Construct: kidneys were homogenized in dialysate buffer (1:9; w/v); from tissue; host or cells: rat kidney (dialyzed supernatant of homogenate)
# Sequence (Q64602 30-425): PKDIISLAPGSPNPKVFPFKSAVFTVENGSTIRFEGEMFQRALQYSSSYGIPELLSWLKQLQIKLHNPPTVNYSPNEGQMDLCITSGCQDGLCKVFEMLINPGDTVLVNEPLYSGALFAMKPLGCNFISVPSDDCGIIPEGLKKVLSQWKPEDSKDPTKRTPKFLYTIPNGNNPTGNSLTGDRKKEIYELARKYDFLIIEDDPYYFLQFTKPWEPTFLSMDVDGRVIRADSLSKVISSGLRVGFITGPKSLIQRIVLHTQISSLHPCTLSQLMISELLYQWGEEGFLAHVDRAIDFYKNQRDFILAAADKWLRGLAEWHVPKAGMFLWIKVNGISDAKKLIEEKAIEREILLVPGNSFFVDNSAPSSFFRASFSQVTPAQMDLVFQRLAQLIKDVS
# assay: KAT II activity in rat kidney in vitro
# Assay type: biochemical
# experimental-setup: 2 µM L-KYN, pH 7.0, 2 mM glutamine, 2 h, 37 °C, read-out: IC50 of KAT II inhibition
Counter-ions that a name gives are not always drawn.
This section presents compounds with their documented IC50 values.
Report as: number unit

Some entries whose results are on file:
Cc1cnc(NC(=O)C2=C(O)c3ccccc3S(=O)(=O)N2C)s1 [meloxicam, meloxicam sodium salt hydrate]	155 µM
COc1ccc2cc([C@H](C)C(=O)O)ccc2c1 [naproxen, naproxen sodium]	504 µM
COc1ccc2c(c1)c(CC(=O)O)c(C)n2C(=O)c1ccc(Cl)cc1	420 µM

API: the following record is the query input.
// IC50 lookup, compound = O=C(O)Cc1ccccc1Nc1c(Cl)cccc1Cl [diclofenac, diclofenac sodium salt] , result: 191 µM

* * *

Overview of recorded IC50 for various compounds
# target-desc: KAT I (Rattus norvegicus)
# Construct: kidneys were homogenized in dialysate buffer (1:9; w/v); from tissue; host or cells: rat kidney (dialyzed supernatant of homogenate)
# Sequence (Q08415 whole entry): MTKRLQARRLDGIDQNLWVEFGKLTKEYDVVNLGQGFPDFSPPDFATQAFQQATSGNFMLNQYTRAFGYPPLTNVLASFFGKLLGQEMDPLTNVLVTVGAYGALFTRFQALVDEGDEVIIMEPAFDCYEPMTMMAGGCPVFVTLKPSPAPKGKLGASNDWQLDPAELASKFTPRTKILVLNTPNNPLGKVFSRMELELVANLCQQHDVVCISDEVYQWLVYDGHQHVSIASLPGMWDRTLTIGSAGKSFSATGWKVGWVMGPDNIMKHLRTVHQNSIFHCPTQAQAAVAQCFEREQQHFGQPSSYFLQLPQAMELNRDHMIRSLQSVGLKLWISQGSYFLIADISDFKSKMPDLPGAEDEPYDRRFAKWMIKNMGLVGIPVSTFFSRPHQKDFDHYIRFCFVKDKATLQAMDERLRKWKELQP
# assay: KAT I activity in rat kidney in vitro
# Format: biochemical
# experimental-setup: 2 µM L-KYN, pH 9.5, highest concentration tested 1 mM, read-out: IC50 of KAT I inhibition
Structures can show the parent of a compound that is named as a salt.

Study these solved cases before continuing.
CN1C(C(=O)Nc2ccccn2)=C(O)c2ccccc2S1(=O)=O	> 1 mM
O=C(O)Cc1ccccc1Nc1c(Cl)cccc1Cl [diclofenac, diclofenac sodium salt]	> 1 mM

// compound COc1ccc2cc([C@H](C)C(=O)O)ccc2c1 [naproxen, naproxen sodium] , assay KAT I (Rattus norvegicus), IC50 value: > 1 mM
